# targetDesc: recombinant human NaV1.8 stably transfected HEK cells (Homo sapiens)
# Construct: expressed in transfected cells; host or cells: HEK cells, stably transfected
# Sequence (Q9Y5Y9 whole entry): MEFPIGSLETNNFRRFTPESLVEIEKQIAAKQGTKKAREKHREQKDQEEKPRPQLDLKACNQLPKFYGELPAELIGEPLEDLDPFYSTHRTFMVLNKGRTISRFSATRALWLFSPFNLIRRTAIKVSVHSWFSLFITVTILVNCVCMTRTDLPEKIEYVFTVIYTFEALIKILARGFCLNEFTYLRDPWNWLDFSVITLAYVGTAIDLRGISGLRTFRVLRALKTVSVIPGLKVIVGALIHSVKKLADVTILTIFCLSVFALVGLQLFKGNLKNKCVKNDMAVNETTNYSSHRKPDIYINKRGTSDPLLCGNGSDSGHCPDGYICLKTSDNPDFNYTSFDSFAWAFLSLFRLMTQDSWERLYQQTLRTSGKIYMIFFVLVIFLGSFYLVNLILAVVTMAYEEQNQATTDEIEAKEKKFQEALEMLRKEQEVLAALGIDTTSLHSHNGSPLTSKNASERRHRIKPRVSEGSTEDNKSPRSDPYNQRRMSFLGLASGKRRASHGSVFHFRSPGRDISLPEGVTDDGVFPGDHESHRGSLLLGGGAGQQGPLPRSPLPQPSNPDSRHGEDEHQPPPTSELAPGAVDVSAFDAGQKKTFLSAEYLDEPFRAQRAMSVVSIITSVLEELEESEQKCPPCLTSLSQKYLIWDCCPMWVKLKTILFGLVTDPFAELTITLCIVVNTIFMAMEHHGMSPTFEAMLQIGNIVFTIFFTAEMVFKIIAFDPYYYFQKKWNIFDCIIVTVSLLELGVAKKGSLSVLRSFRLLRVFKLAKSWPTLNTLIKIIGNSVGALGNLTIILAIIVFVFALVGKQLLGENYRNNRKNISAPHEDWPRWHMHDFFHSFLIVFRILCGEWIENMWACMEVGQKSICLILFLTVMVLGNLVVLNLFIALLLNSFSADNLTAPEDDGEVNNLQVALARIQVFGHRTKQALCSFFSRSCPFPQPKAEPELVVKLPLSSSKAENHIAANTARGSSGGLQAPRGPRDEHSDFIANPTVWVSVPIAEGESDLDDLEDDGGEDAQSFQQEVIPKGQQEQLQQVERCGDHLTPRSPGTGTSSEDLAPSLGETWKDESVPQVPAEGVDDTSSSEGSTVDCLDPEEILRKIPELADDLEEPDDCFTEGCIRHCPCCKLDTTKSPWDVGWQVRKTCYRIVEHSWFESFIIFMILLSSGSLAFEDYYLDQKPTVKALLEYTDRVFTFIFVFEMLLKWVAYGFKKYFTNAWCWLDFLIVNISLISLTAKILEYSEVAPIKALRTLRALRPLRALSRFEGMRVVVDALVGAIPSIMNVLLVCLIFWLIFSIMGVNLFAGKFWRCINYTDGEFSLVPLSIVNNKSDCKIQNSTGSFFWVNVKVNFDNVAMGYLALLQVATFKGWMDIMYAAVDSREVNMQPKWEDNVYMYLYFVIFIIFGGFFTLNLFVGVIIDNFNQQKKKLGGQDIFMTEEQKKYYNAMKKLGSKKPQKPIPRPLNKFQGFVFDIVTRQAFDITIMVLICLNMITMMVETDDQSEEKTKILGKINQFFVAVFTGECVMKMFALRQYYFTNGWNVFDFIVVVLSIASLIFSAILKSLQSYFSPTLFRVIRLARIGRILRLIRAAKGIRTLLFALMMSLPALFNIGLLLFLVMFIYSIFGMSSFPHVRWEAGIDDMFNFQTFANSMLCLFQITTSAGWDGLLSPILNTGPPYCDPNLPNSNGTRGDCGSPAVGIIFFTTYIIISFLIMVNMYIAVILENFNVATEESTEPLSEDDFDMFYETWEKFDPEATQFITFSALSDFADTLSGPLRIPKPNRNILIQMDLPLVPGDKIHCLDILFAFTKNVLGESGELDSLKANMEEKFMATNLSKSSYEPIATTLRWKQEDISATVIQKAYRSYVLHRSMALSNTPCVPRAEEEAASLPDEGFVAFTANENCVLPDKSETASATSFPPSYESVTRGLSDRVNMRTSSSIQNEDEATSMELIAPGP
# assayDetails: Compound profiling on NaV1.8, human NaV1.8 cell line, SyncroPatch384PE automated patch clamp assay (Example 115, third set of compounds, Table 27)
# Format: cell-based
# condition: resting state block (P1 measurement), human NaV1.8 HEK cells, Table 27 (third set of compounds), read-out: P1 IC50
pIC50: −log10 of the molar value.
measurementType: pIC50

testSmiles | measurementType | experimentalResult
COc1cc(F)ccc1Oc1nnc(C(F)(F)F)cc1C(=O)Nc1ccc2c(c1)S(=O)(=O)NC2=O | pIC50 | 6.00 to 6.30
NC(=O)c1cncc(NC(=O)c2cc(C(F)(F)F)nnc2Oc2cc(F)ccc2Cl)c1 | pIC50 | < 5.30
COc1cc(F)ccc1Oc1nnc(C(F)(F)F)cc1C(=O)Nc1cccc(S(C)(=O)=O)n1 | pIC50 | < 5.30
Cc1cc(F)ccc1Oc1nnc(C(F)(F)F)cc1C(=O)Nc1ccc(=O)[nH]c1 | pIC50 | 5.30 to 6.00
CS(=O)(=O)c1cccc(NC(=O)c2cc(C(F)(F)F)nnc2Oc2cccc(OC(F)(F)F)c2)c1 | pIC50 | < 5.30

Data origin: patent US20240336574A1
